Reported pIC50 by item:
molecular target: UniProt:P61169; test: In vitro binding affinity towards rat Dopamine receptor D2 by [3H]spiperone displacement.
Sequence (P61169 whole entry): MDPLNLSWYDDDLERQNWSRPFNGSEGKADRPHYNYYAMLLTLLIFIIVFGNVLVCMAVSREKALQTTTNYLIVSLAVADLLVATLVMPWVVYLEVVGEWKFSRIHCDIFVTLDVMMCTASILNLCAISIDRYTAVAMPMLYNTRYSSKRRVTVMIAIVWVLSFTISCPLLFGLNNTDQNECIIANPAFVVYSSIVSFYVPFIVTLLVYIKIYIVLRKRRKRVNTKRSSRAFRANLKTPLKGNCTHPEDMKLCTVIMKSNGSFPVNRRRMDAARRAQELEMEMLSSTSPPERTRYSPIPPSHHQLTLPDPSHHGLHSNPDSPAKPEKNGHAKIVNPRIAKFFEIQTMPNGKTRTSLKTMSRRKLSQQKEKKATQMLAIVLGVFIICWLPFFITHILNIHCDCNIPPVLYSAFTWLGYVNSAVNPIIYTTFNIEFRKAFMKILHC
pIC50: −log10 of the molar value.
reported property: pIC50

- CN1CCc2cccc3c2[C@@H]1Cc1cccc(O)c1-3: 5.65
- CCCN1CCC[C@@H]2Cc3nc(N)ncc3C[C@H]21 [QUINELORANE]: 6.82
- CN1CCc2cccc3c2[C@H]1Cc1cccc(O)c1-3: 7.24
- COc1ccc2c(c1O)-c1cccc3c1[C@@H](C2)N(C)CC3 [APOCIDEINE]: 5.68
- CN1CCc2cccc3c2[C@H]1Cc1cc(Br)cc(O)c1-3: 5.59
- CN1CCc2cccc3c2[C@H]1Cc1ccc(Cl)c(O)c1-3: 6.10
- COc1ccc2c(c1O)-c1c3c(cc4c1[C@H](C2)N(C)CC4)OCO3 [(S)-BULBOCAPNINE]: 4.85
- CN1CCc2cccc3c2[C@@H]1Cc1ccc(Br)c(O)c1-3: 5.53
- COc1cccc2c1-c1cccc3c1[C@H](C2)N(C)CC3: 6.08
- CN1CCc2cccc3c2[C@H]1Cc1c(Cl)ccc(O)c1-3: 6.30
- CN1CCc2cccc3c2[C@H]1Cc1c(Br)ccc(O)c1-3: 6.35
- COc1cccc2c1-c1cccc3c1[C@@H](C2)N(C)CC3: 5.67
- CN1CCc2cccc3c2[C@H]1Cc1ccc(Br)c(O)c1-3: 6.18
